Target: Tyrosine-protein phosphatase non-receptor type 1 (Homo sapiens)
Sequence (P18031 whole entry): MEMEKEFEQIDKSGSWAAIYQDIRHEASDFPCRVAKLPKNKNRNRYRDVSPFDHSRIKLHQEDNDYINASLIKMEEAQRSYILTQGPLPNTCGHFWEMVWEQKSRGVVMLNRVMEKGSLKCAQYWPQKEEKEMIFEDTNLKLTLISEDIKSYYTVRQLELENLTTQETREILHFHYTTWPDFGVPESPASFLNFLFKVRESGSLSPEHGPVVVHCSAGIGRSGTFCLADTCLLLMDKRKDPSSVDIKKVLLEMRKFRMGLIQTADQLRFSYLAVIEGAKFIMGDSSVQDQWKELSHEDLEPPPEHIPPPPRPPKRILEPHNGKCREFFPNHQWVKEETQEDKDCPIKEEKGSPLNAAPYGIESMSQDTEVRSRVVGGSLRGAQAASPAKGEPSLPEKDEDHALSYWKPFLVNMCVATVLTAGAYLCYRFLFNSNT
ASSAY_READOUT: pIC50
# log scale: pIC50 equals minus log10 of the concentration in mol/L

Data request: Form field: reported pIC50 of "COC(=O)c1cccc(S(=O)(=O)Nc2ccc(-c3nc4cc(NS(=O)(=O)c5cccc(C(=O)OC)c5)ccc4o3)cc2)c1"
Data returned: 4.77

Data request: Form field: reported pIC50 of "O=S(=O)(Nc1ccc2oc(-c3ccccc3)nc2c1)c1ccc(C(F)(F)F)cc1"
Data returned: 4.44

Data request: Form field: reported pIC50 of "C=Cc1ccc(S(=O)(=O)Nc2ccc(-c3nc4ccccc4o3)cc2)cc1"
Data returned: 4.33

Data request: Form field: reported pIC50 of "Cc1ccc(S(=O)(=O)Nc2ccc(-c3nc4ccc(NS(=O)(=O)c5ccc(C)cc5)cc4[nH]3)cc2)cc1"
Data returned: 4.82

====

Test: Cytotoxicity against human THLE3 cells assessed as reduction in cell viability after 48 hrs by Alamar blue assay
Type: cell-based
Response field label takes fulfilled when CC50 at 48 h is strictly below 60 µM and not fulfilled in all other cases.

In [3]: df
Out[3]:
                               query_smiles  assigned_label
0  O=S(=O)(Nc1ccc(-c2nc3ccccc3o2)cc1)c1ccc(C(F)(F)F)cc1   not fulfilled
1  CCc1ccc(S(=O)(=O)Nc2ccc3oc(-c4ccccc4)nc3c2)cc1   not fulfilled

Data request: Strictly below 60 µM in CC50 at 48 h? "O=S(=O)(Nc1ccc2oc(-c3ccccc3)nc2c1)c1cccc(C(F)(F)F)c1"
Data returned: fulfilled

Data request: Strictly below 60 µM in CC50 at 48 h? "COc1ccccc1S(=O)(=O)Nc1ccc(-c2nc3ccccc3o2)cc1"
Data returned: not fulfilled

Data request: Strictly below 60 µM in CC50 at 48 h? "O=S(=O)(Nc1ccc(-c2nc3ccccc3o2)cc1)c1cccc(Cl)c1"
Data returned: not fulfilled

Data request: Strictly below 60 µM in CC50 at 48 h? "O=S(=O)(Nc1ccc(-c2nc3ccccc3o2)cc1)c1ccc(O)cc1"
Data returned: not fulfilled

Data request: Strictly below 60 µM in CC50 at 48 h? "O=S(=O)(Nc1ccc2oc(-c3ccccc3)nc2c1)c1ccc(Cl)c(Cl)c1"
Data returned: fulfilled

Data request: Strictly below 60 µM in CC50 at 48 h? "O=[N+]([O-])c1cc(S(=O)(=O)Nc2ccc(-c3nc4ccccc4o3)cc2)ccc1Cl"
Data returned: fulfilled

Data request: Strictly below 60 µM in CC50 at 48 h? "O=S(=O)(Nc1ccc(-c2nc3ccccc3o2)cc1)c1ccccc1F"
Data returned: not fulfilled

Data request: Strictly below 60 µM in CC50 at 48 h? "O=S(=O)(Nc1ccc(-c2nc3ccccc3o2)cc1)c1ccc(F)c(C(F)(F)F)c1"
Data returned: not fulfilled

Data request: Strictly below 60 µM in CC50 at 48 h? "COc1ccc(S(=O)(=O)Nc2ccc(-c3nc4ccccc4o3)cc2)cc1"
Data returned: not fulfilled

Data request: Strictly below 60 µM in CC50 at 48 h? "Cc1ccc(S(=O)(=O)Nc2ccc(-c3nc4ccccc4o3)cc2)cc1"
Data returned: not fulfilled

Data request: Strictly below 60 µM in CC50 at 48 h? "O=S(=O)(Nc1ccc(-c2nc3ccccc3o2)cc1)c1ccc(Cl)cc1"
Data returned: not fulfilled

Data request: Strictly below 60 µM in CC50 at 48 h? "COc1cccc(S(=O)(=O)Nc2ccc(-c3nc4ccccc4o3)cc2)c1"
Data returned: not fulfilled

Data request: Strictly below 60 µM in CC50 at 48 h? "COc1cccc(S(=O)(=O)Nc2ccc3oc(-c4ccccc4)nc3c2)c1"
Data returned: fulfilled

Data request: Strictly below 60 µM in CC50 at 48 h? "Cc1ccc(S(=O)(=O)Nc2ccc3oc(-c4ccccc4)nc3c2)cc1"
Data returned: fulfilled

Data request: Strictly below 60 µM in CC50 at 48 h? "Cc1cccc(S(=O)(=O)Nc2ccc3oc(-c4ccccc4)nc3c2)c1"
Data returned: fulfilled

Data request: Strictly below 60 µM in CC50 at 48 h? "O=S(=O)(Nc1ccc2oc(-c3ccccc3)nc2c1)c1ccccc1"
Data returned: fulfilled

Data request: Strictly below 60 µM in CC50 at 48 h? "O=S(=O)(Nc1ccc2oc(-c3ccccc3)nc2c1)c1ccc(Cl)s1"
Data returned: fulfilled
